# assayed_target: mGluR2 (Rattus norvegicus)
# Sequence (P31421 19-872): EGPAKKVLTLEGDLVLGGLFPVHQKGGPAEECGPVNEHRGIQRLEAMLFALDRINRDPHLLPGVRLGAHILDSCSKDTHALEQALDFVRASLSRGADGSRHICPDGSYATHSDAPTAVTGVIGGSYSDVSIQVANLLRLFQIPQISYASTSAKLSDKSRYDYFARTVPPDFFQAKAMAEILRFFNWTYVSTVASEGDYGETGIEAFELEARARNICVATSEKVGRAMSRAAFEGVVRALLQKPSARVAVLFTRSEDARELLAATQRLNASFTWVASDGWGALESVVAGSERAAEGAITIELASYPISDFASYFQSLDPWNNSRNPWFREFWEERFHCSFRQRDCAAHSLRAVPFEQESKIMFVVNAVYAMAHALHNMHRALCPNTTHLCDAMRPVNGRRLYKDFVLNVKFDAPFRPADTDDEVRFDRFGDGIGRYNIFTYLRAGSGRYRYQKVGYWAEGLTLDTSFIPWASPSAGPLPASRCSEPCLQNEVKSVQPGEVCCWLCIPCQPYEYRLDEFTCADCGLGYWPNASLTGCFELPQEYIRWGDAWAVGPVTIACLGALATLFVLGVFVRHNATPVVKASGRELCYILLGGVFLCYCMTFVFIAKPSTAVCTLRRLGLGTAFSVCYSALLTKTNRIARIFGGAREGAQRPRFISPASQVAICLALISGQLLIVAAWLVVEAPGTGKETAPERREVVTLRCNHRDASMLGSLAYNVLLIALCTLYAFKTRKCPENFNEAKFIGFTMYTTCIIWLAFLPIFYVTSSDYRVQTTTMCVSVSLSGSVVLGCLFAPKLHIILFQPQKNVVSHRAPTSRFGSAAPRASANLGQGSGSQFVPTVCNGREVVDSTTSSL
# protocol_details: Calcium imaging (G protein chimera, GCaMP6f) in HEK 293 T cells
reported_metric: pEC50
The quantity pEC50 is defined as the negative base-10 logarithm of the molar concentration.

[in] Entry COc1ccccc1Oc1ccc(N(Cc2cccnc2)S(=O)(=O)CC(F)(F)F)cc1 : reported pEC50 = ?
[out] 6.35

====

# assayed_target: mGluR3 (Rattus norvegicus)
# Sequence (P31422 23-879): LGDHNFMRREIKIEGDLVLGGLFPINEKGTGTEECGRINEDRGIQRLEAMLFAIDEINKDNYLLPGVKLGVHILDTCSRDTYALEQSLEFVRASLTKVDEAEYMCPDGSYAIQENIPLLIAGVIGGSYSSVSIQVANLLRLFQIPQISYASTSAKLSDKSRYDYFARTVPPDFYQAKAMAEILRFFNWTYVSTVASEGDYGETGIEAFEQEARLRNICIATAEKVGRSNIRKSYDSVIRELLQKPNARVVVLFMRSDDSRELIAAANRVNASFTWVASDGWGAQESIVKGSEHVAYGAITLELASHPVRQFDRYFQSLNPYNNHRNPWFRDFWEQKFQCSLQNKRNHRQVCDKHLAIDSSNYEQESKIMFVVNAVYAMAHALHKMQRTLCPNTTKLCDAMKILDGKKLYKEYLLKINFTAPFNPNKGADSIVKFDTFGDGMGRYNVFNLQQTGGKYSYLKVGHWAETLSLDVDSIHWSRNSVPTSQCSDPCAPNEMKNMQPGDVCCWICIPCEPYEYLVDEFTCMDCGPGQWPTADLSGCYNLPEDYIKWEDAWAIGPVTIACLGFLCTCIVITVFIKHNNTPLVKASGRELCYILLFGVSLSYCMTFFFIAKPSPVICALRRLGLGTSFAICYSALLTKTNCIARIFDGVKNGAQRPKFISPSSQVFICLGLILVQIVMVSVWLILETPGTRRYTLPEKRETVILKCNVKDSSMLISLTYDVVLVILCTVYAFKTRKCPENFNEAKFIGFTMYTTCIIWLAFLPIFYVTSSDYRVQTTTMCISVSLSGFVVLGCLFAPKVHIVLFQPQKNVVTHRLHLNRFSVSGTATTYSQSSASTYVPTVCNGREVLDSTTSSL
# protocol_details: GIRK channel whole cell patch clamp in HEK 293 T cells
# assay_conditions: read-out: Glutamate EC50, GIRK activation; normalized to saturating (1 mM) glutamate; unit inferred
reported_metric: EC50 (nM)
Kindly answer with a numeric value in nM, unit omitted.

[in] Look up EC50 for this compound: N[C@@H](CCC(=O)O)C(=O)O [glutamate]
[out] 430

Value source: paper PMC8102066
